System: BenM/P_H16_RS09790 benzoate biosensor (pEH148)
Experiment: relative induction of RFP reporter vs primary effector; higher = stronger activation
Settings: inducer concentration 5 mM; 6 h; Cupriavidus necator H16; minimal medium + 0.4% gluconate
ATTRIBUTE_MEASURED: relative induction of RFP reporter (%)
Answers are plain numbers, in %.

// worked examples, relative induction of RFP reporter included
O=c1[nH]c(=O)c2nc[nH]c2[nH]1 :: -0.0092
O=C(O)C(=O)c1ccccc1 [phenylglyoxylate] :: 16.8
C=C(CC(=O)O)C(=O)O [itaconate] :: -0.0396
O=CO [formate] :: 0.0137
O=C(O)CS(=O)(=O)O [sulfonatoacetate] :: -0.0067

Here are 2 compounds. What values of relative induction of RFP reporter were reported for them?
1. OC1OC[C@H](O)[C@H](O)[C@H]1O (mixture of isomers)
2. O=C(O)c1ccccc1O [salicylate]

Result:
-0.0174
1.72

---

Tested on: PhhR/P_H16_RS18365 L-phenylalanine biosensor (pEH137)
Test: relative induction of RFP reporter vs primary effector; higher = stronger activation
Settings: inducer concentration 5 mM; 6 h; Cupriavidus necator H16; minimal medium + 0.4% gluconate
ATTRIBUTE_MEASURED: relative induction of RFP reporter (%)
One number for each entry, in %.

// worked examples, relative induction of RFP reporter included
O=C(O)C(=O)c1ccccc1 [phenylglyoxylate] :: -0.366
C=CC(=O)O [acrylate] :: -0.318
O=C(O)C(O)C(O)C(=O)O (stereo not given) [tartrate] :: 0.258

Here are 3 molecules. What values of relative induction of RFP reporter were reported for them?
1. O=CO [formate]
2. Nc1ccccc1C(=O)C[C@H](N)C(=O)O [L-kynurenine]
3. CC(=O)C(C)O (stereo not given) [acetoin]

Result:
[-0.0153, -0.316, -0.273]

Here are 3 molecules. What values of relative induction of RFP reporter were reported for them?
1. NCCC(=O)O [β-alanine]
2. O=C(O)C1CCCCC1 [cyclohexane-1-carboxylate]
3. O=C(O)c1ccccc1O [salicylate]

Result:
1. -0.6
2. -0.0509
3. -0.155

Task: // fetch relative induction of RFP reporter given entry C=C(CC(=O)O)C(=O)O [itaconate]
Result: -0.415

---

Give relative induction of RFP reporter for every item shown.
System: HpdR/P_H16_RS18295 3-hydroxypropanoate biosensor (pEH010)
Assay: relative induction of RFP reporter vs primary effector; higher = stronger activation
Conditions: inducer concentration 5 mM; 6 h; Cupriavidus necator H16; minimal medium + 0.4% gluconate
One number for each entry, in %.

// worked examples, relative induction of RFP reporter included
O=C(O)c1ccccc1O [salicylate] :: 0.195
O=C(O)c1ccc(O)c(O)c1 [3,4-dihydroxybenzoate] :: -0.0358
C=C(CC(=O)O)C(=O)O [itaconate] :: -0.14

Here are 4 compounds. What values of relative induction of RFP reporter were reported for them?
1. O=c1[nH]c(=O)c2nc[nH]c2[nH]1
2. NCCC(=O)O
3. O=C(O)C(O)C(O)C(=O)O (stereo not given) [tartrate]
4. O=CO [formate]

Result:
0.1
0.231
-0.0938
0.0754

Here are 3 compounds. What values of relative induction of RFP reporter were reported for them?
1. CC(=O)C(C)O (stereo not given)
2. O=C(O)C(=O)c1ccccc1 [phenylglyoxylate]
3. N[C@@H](Cc1ccccc1)C(=O)O

Result:
-0.347
-0.296
-0.399

Provenance of the data: the supplement of paper PMC7057948
